This listing pairs molecules with measured GI50.
- Test system: TK-10
- Experiment: NCI tumour cell line growth inhibition, 48 h
Calls of active or inactive are those of the source. Cut-off read from the data, not from the text of the source: active = GI50 up to about 1.1 µM and inactive = higher.

| Molecule | Experimental system | GI50 |
| --- | --- | --- |
| CC12CCC3=C(CSC4=C3CSc3ccccc34)C1=CCCC2=O (stereo unspecified) | TK-10 | 38 µM (inactive) |
| N#Cc1ccc(OCCSCCCCCCCCCCSCCOc2ccc(C#N)cc2)cc1 | TK-10 | > 100 µM (inactive) |
| Nc1ncnc2c1ncn2CCCNO | TK-10 | > 100 µM (inactive) |
| CCOC(=O)c1ncn2c1[nH]c(=S)c1ccccc12 | TK-10 | > 100 µM (inactive) |
| CCOC(=O)C12OC(OCC)(CC1(OCC)OCC)C1(CC1)C2=O (stereo unspecified) | TK-10 | > 100 µM (inactive) |
| Cc1nnc(N/N=C2/C(=O)Nc3c(Cl)cc(Cl)cc32)n1N | TK-10 | > 100 µM (inactive) |
| C=CC[C@H](N=C(SC)SC)C(=O)N1C(=O)N(C)[C@@H](C)[C@H]1c1ccccc1 | TK-10 | 44.2 µM (inactive) |
| COc1cc2c(c(O)c1OC)C(=O)[C@@H]1CCC(=O)N1C2c1ccccc1 (stereo partly specified) | TK-10 | > 100 µM (inactive) |
| COC(=O)C1=CC2OC1(C)C1(CC1)C2=O (stereo unspecified) | TK-10 | > 10 µM (inactive) |
| Cc1cc(O)nc(NN2C(Cl)C(=O)C2c2ccccc2O)n1 (stereo unspecified) | TK-10 | 19.4 µM (inactive) |
| COc1ccc(C2c3cc(OC)c(OC)cc3C(Cc3ccc([N+](=O)[O-])cc3)C2c2ccc([N+](=O)[O-])cc2)cc1OC (stereo unspecified) | TK-10 | > 100 µM (inactive) |

* * *

- Test system: SK-MEL-5
- Experiment: NCI tumour cell line growth inhibition, 48 h
The source made the active and inactive calls. Rule as the data show it: active = GI50 up to about 1.1 µM and inactive = higher.

| Compound | GI50 |
| --- | --- |
| Oc1ccc(Br)cc1/C=N/c1cccc(C(F)(F)F)c1 | 28.3 µM (inactive) |
| COC1(OC)CCCCC2c3cccc(OC(C)=O)c3C21OC(C)=O (stereo not given) | > 100 µM (inactive) |
| O=C(Nc1ccc(Cl)c(Cl)c1)C1C(=O)N(c2ccc(Cl)c(Cl)c2)C(=O)/C1=N\O (stereo not given) | > 100 µM (inactive) |
| CN(C)/C=C1\CCc2ccc([N+](=O)[O-])cc2C1=O | 92.9 µM (inactive) |
| Nc1nc(N)c(NC(=O)CCCO)c(=O)[nH]1 | > 100 µM (inactive) |

* * *

- Test system: SK-OV-3
- Experiment: NCI tumour cell line growth inhibition, 48 h
Calls of active or inactive are those of the source. No stated cut-off is given here; in the data, active = GI50 up to about 1.1 µM and inactive = higher.
Labels: active, inactive

| Molecule | Group |
| --- | --- |
| COC(=O)c1ccccc1NC(=O)C(=O)Cc1nc2c3c(ccc2nc1O)C(=O)c1ccccc1C3=O | inactive |
| O=C(Nc1sccc1S(=O)(=O)c1ccc(Cl)cc1)c1ccc(Cl)cc1Cl | inactive |
| CN1C(=O)C(O)CC1c1cccc(F)c1 (stereo unspecified) | inactive |
| CN(C)CCNC(=O)Cn1ccc(=O)c2cc([N+](=O)[O-])ccc21 | inactive |
| COc1ccc(/N=N/c2ccc3oc(=O)c(C(=O)Nc4ccccc4C)cc3c2)cc1 | inactive |
| NC(=O)C(=Cn1c(=S)[nH]c2ccc([N+](=O)[O-])cc21)C(N)=O | inactive |
| Nc1nc(O)nc2sc3c(c12)CCCC3 | inactive |
| CCOC(=O)c1c(-c2ccccc2)[nH]c2ccc(Cl)cc2c1=O | inactive |
| C[C@H]1[C@H](C)N1CC(O)Cn1ccnc1[N+](=O)[O-] (stereo partly specified) | inactive |
| C=CC(=C)CCC(Br)C(C)(C)Cl (stereo unspecified) | inactive |
| COc1cccc(/C=C/c2cc(OC)c(OC)c(OC)c2)c1 | inactive |
| CCOC(=O)c1ncn2c1[nH]c(=S)c1ccccc12 | inactive |
| Cc1cc(S(=O)(=O)Nc2nc(N)nc(N3N=CCC3C)n2)c(SCC(=O)O)cc1Cl (stereo unspecified) | inactive |
| CC1=C(C(=O)OC2CC3CCC2(C)C3(C)C)C2Nc3ccccc3N(C)C2O1 (stereo unspecified) | inactive |
| COc1ccccc1C1ON=C(c2ccc([N+](=O)[O-])cc2)N1C12CC3CC(CC(C3)C1)C2 (stereo unspecified) | inactive |
| CCOC(=O)CCC(NC(=O)c1ccc(/N=C/c2nc3cc(C(F)(F)F)ccc3nc2-c2ccccc2)cc1)C(=O)OCC (stereo unspecified) | inactive |
| N=C(N)NS(=O)(=O)c1ccc(Nc2c3ccccc3nc3c(C(=O)NNCCO)cccc23)cc1 | active |
| COCc1nc2c(OC)c(-c3nc4ccc(N5CCN(C)CC5)nc4[nH]3)cc(OC)c2[nH]1 | inactive |
| CC(C)C/N=C(\N)N=C(N)N | inactive |
| COc1cc2c3c(c1OC)C1(C=CC(=O)C=C1)CC3N(C(=O)OC(C)(C)C(Cl)(Cl)Cl)CC2 (stereo unspecified) | inactive |
| C/C(=N\Nc1ccc([N+](=O)[O-])cc1)C(=O)N(C)Nc1ccccc1 | inactive |

* * *

- Test system: ACHN
- Experiment: NCI tumour cell line growth inhibition, 48 h
Active and inactive are the calls of the source. No stated cut-off is given here; in the data, active = GI50 up to about 1.1 µM and inactive = higher.
This listing pairs molecules with measured GI50.
Observable: GI50

| Molecule | Experimental system | Reported |
| --- | --- | --- |
| OCC(O)C(Cl)CCl (centres undefined) | ACHN | > 100 µM (inactive) |
| CC1=C(SCc2ccccc2)C(=O)c2ccccc2C1=O | ACHN | 13.6 µM (inactive) |
| CCOC(=O)c1cn(C)c(=S)n2c1nc1ccccc12 | ACHN | 49.1 µM (inactive) |
| CCOC(=O)c1ccc(N2C(=O)Cc3ccccc3C2=O)cc1 | ACHN | > 100 µM (inactive) |
| COc1ccc(CC/N=C2\OCc3ccccc32)cc1OC | ACHN | 52.5 µM (inactive) |
| CC12CCC(C(Nc3ccccn3)C1=O)C2(C)C (centres undefined) | ACHN | > 100 µM (inactive) |
| CSC(SC)=C(C(=O)c1ccc(Cl)cc1)n1c(=O)sc2cc(Br)ccc21 | ACHN | > 100 µM (inactive) |
| Cc1ccc(-c2nc3ccccc3c(=O)n2NC2OC(CO)C(O)C(O)C2O)cc1 (centres undefined) | ACHN | > 100 µM (inactive) |
| CC(C)C/N=C(\N)N=C(N)N | ACHN | > 100 µM (inactive) |
| N#CC(C(=O)CCC(=O)C(C#N)c1ccccc1)c1ccccc1 (centres undefined) | ACHN | > 100 µM (inactive) |
| CN(C)/C=C1\CCc2ccc([N+](=O)[O-])cc2C1=O | ACHN | > 100 µM (inactive) |
| CCN(CC)CCN1C(=O)c2cccc3cc(N)cc(c23)C1=O | ACHN | 4.94 µM (inactive) |
| Brc1ccc(N2C[N+](c3ccc(Br)cc3)=NC(c3ccccc3)=N2)cc1 | ACHN | 13.6 µM (inactive) |
| O=C(O)c1ccc(Oc2nc3ccccc3s2)cc1 | ACHN | > 100 µM (inactive) |
| NCCP(=O)(O)O | ACHN | > 100 µM (inactive) |
| Cc1cc(Cl)cc2c1NC(=O)C2(O)CC(=O)c1ccco1 (centres undefined) | ACHN | > 100 µM (inactive) |
| Nc1nc(O)nc2c1ncn2C1OC(CO)C(O)C1O (centres undefined) | ACHN | 78.9 µM (inactive) |
| CC1CCCC(CC(=O)O)(CC(=O)O)C1 (centres undefined) | ACHN | > 100 µM (inactive) |
| CC(C)OP(=O)(OC(C)C)/C(C#N)=C/c1c[nH]c2ccccc12 | ACHN | 86.3 µM (inactive) |
| COc1ccc2nc3cc(Cl)ccc3c(Sc3ccc(NC(C)=O)cc3)c2c1 | ACHN | 4.86 µM (inactive) |
| Cc1ccc([N+](=O)[O-])cc1S(=O)(=O)Nc1ccc(C(=O)/C=C/c2cccs2)cc1 | ACHN | 29.4 µM (inactive) |
| CCOC(=O)Cc1ccc(Nc2nc3cc(C(F)(F)F)ccc3nc2C(=O)OCC)cc1 | ACHN | 33 µM (inactive) |
| COc1ccc(O[C@H](CO)C[C@@H]2COC(C)(C)O2)cc1 | ACHN | > 100 µM (inactive) |
| CCOC(=O)NC(Nc1ccc(C(=O)OCC)cc1)(C(F)(F)F)C(F)(F)F | ACHN | 42.7 µM (inactive) |

* * *

This listing pairs compounds with measured GI50.
- System: CCRF-CEM
- Experiment: NCI tumour cell line growth inhibition, 48 h
Activity calls are given as the source filed them. No stated cut-off is given here; in the data, active = GI50 up to about 1.1 µM and inactive = higher.

| Compound | GI50 |
| --- | --- |
| CCOc1ccccc1NC(=O)C(=O)CC(=O)c1c(C)[n+]([O-])c2ccccc2[n+]1[O-] | 52.8 µM (inactive) |
| COc1ccc2cc(Oc3ccc(Cl)cc3)c(=O)oc2c1 | > 100 µM (inactive) |
| O=C(N/N=C\c1ccccc1)Nc1cccc2ccccc12 | > 100 µM (inactive) |
| Cc1[nH]c2c(c1C)S(=O)(=O)c1cc3ccccc3nc1N2 | 5.09 µM (inactive) |
| CN1C(=O)CC(CC(=O)C2CCCCC2=O)CC1=O (stereo unspecified) | > 100 µM (inactive) |
| O=C1C2=C(CCC2)Nc2cccc3ncn1c23 | > 100 µM (inactive) |
| COc1ccccc1Nc1nc(N)nc(N)c1N | 27 µM (inactive) |
| C[N+]1=C(c2cccnc2/C=N/O)OCC1(C)C | > 100 µM (inactive) |
| COc1ccccc1NC(=O)C1=C(C)NC(C)=C(C(=O)Nc2ccccc2OC)C1c1ccccc1OC | > 100 µM (inactive) |
| c1ccc(C[P+]2(c3ccccc3)c3ccccc3-c3ccccc32)cc1 | > 100 µM (inactive) |
| O=C(NCCN1CCCC1)c1cn2c(ccc3sc4ccccc4c(=O)c32)n1 | 1.22 µM (inactive) |
